Field: CC50 at 5 days. Provide a value for each of the molecules that follow.
Assay: Cytotoxicity assay in MT-4 cells
Assay type: cell-based, human
Settings: human, uninfected MT-4 cells, 5 days incubation; read-out: CC50
Description: Each plate contained up to 8 test compounds, with negative (No Drug Control) and 5 μM AZT positive controls. MT-4 cells were pre-infected with 10 μL of either RPMI (mock-infected) or a fresh 1:250 dilution of HIV-1 IIIB concentrated virus stock. […] After 5 days incubation in a humidified and temperature controlled incubator (37° C.), Cell Titer Glo (Promega) was added to the assay plates and chemiluminescence read using an Envision plate-reader. […]
Form entry: value (µM) — number only.

Please give the measured CC50 at 5 days for this molecule: `O=C(NCc1c(F)cc(F)cc1F)c1cn2c(c(O)c1=O)C(=O)N1CCc3cc(Cl)ccc3[C@@H]2C1` 6.55

Please answer likewise for `CC1=CC[C@H]2CN(C(=O)c3c(O)c(=O)c(C(=O)NCc4c(F)cc(F)cc4F)cn32)[C@H]1C` 13.9

Thanks! And O=C(NCc1c(F)cc(F)cc1F)c1cn2c(c(O)c1=O)C(=O)N1CCC=C(F)[C@H]2C1 (single isomer, unassigned) ? 26

Quick one: `O=C(NCc1ccc(F)cc1F)c1cn2c(c(O)c1=O)C(=O)N1CC[C@@H](F)C[C@@H]2C1` 30.5

* * *

Consider the following compounds; for each one, report its pEC50.
Test system: pLai RLuc reporter virus
Assay: microbe, parasite or virus in culture
Assay type: cell-based, HIV
Settings: Human immunodeficiency virus 1, 72 h, read-out: Antiviral Serum Shift RLuc CCM, CCM (RPMI media, 10% FBS, 1% P/S), 72-h incubation
A value of pEC50 is the negative decimal logarithm of a concentration given in moles per litre.

# input compound: `O=C(NCc1c(F)cc(F)cc1F)c1cn2c(c(O)c1=O)C(=O)N1C[C@H]2CCc2c(F)cccc21` ; wanted: its pEC50 9.54

What would you report for `C[C@@H]1N2C[C@H](CCC1(F)F)n1cc(C(=O)NCc3c(F)cc(F)cc3F)c(=O)c(O)c1C2=O` ? 9.51

Here is the next compound: `C[C@@H]1CC[C@H]2CN(C(=O)c3c(O)c(=O)c(C(=O)NCc4c(F)cc(F)cc4F)cn32)[C@H]1C` 9.70

Same thing, different compound: `O=C(NCc1ccc(F)cc1F)c1cn2c(c(O)c1=O)C(=O)N1C[C@@H]2CC=C[C@@H]1CF` 9.38

For `O=C(NCc1c(F)cc(F)cc1F)c1cn2c(c(O)c1=O)C(=O)N1C[C@@H]2CCC[C@@H]1CF` then? 9.48

What about this compound? `O=C(NCc1ccc(F)cc1F)c1cn2c(c(O)c1=O)C(=O)N1Cc3cc(F)c(F)cc3C[C@H]2C1` 9.17

Follow-up entry: `C[C@H]1CC[C@H]2CN(C1)C(=O)c1c(O)c(=O)c(C(=O)NCc3c(F)cc(F)cc3F)cn12` 9.73

# iterate: `O=C(NCc1ccc(F)cc1F)c1cn2c(c(O)c1=O)C(=O)N1CCC[C@@H](F)[C@@H]2C1` 9.16

Field entry: O=C(NCc1ccc(F)c(Cl)c1F)c1cn2c(c(O)c1=O)C(=O)N1CC2CCc2cccc(F)c21 (stereo not shown) 9.36

Here is the next compound: `O=C(NCc1c(F)cc(F)cc1F)c1cn2c(c(O)c1=O)C(=O)N1CCOC[C@@H]2C1` 8.92

Param item: `C[C@@]12CCCCN(C1)C(=O)c1c(O)c(=O)c(C(=O)NCc3c(F)cc(F)cc3F)cn12` 9.26

Try this compound next: `O=C(NCc1ccc(F)cc1F)c1cn2c(c(O)c1=O)C(=O)N1CC[C@H](F)C[C@H]2C1` 9.01

Now the same for `C[C@@H]1CC[C@H](C)N2C[C@H]1n1cc(C(=O)NCc3c(F)cc(F)cc3F)c(=O)c(O)c1C2=O` 9.46

Can you handle `C[C@@H]1C=C[C@H](CF)N2C[C@H]1n1cc(C(=O)NCc3ccc(F)cc3F)c(=O)c(O)c1C2=O` next? 9.60

Same again, this time with C[C@]12Cc3cc(F)c(F)cc3CN(C1)C(=O)c1c(O)c(=O)c(C(=O)NCc3c(F)cc(F)cc3F)cn12 (single isomer, unassigned) 9.44

# iterate: `C[C@@]1(F)CCCN2C[C@@H]1n1cc(C(=O)NCc3ccc(F)cc3F)c(=O)c(O)c1C2=O` 9.42

Then what about the compound `O=C(NCc1c(F)cc(F)cc1F)c1cn2c(c(O)c1=O)C(=O)N1CCC[C@H](F)[C@H]2C1` ? 9.54

Continue with C[C@]1(F)CCCN2C[C@@H]1n1cc(C(=O)NCc3ccc(F)cc3F)c(=O)c(O)c1C2=O (single isomer, unassigned) 9.48

Another compound to check: O=C(NCc1ccc(F)cc1F)c1cn2c(c(O)c1=O)C(=O)N1Cc3ccc(Cl)cc3C[C@H]2C1 (single isomer, unassigned) 9.12

Again, but for `C[C@]1(F)CCN2C[C@H](C1)n1cc(C(=O)NCc3c(F)cc(F)cc3F)c(=O)c(O)c1C2=O` 9.57

Further, for `O=C(NCc1c(F)cc(F)c(F)c1F)c1cn2c(c(O)c1=O)C(=O)N1CCCC[C@H]2C1` ? 9.48

Entry to check: `O=C(NCc1ccc(F)c(Cl)c1F)c1cn2c(c(O)c1=O)C(=O)N1CC=CC[C@H]2C1` 9.60

Another compound to check: O=C(NCc1ccc(F)c(Cl)c1F)c1cn2c(c(O)c1=O)C(=O)N1CCCC(F)(F)[C@@H]2C1 (single isomer, unassigned) 9.22

And then `O=C(NCc1c(F)cc(F)cc1F)c1cn2c(c(O)c1=O)C(=O)N1CCC=C[C@@H]2C1` , what is it? 9.28

Next: `O=C(NCc1ccc(F)cc1F)c1cn2c(c(O)c1=O)C(=O)N1CCCCC[C@H]2C1` 9.14

* * *

Test: Cytotoxicity assay in MT-4 cells
Type: cell-based, human
Details: human, uninfected MT-4 cells, 5 days incubation; read-out: CC50
Please provide measured CC50 at 5 days for the entries that follow.
Numeric only. Scale: µM

Bench note: what CC50 at 5 days did `O=C(NCc1ccc(F)cc1F)c1cn2c(c(O)c1=O)C(=O)N1CCCCC[C@@H]2C1` show? 11.1

Now give it for `O=C(NCc1c(F)cc(F)cc1F)c1cn2c(c(O)c1=O)C(=O)N1CCCC[C@@H]2C1` too. 15.9

Same question, `C[C@H]1CCCN2C[C@H]1n1cc(C(=O)NCc3c(F)cc(F)cc3F)c(=O)c(O)c1C2=O` this time 9.86

Try this molecule next: O=C(NCc1ccc(F)cc1F)c1cn2c(c(O)c1=O)C(=O)N1CCCCC2C1 (racemic) 12.6

Repeat with O=C(NCc1ccc(F)cc1F)c1cn2c(c(O)c1=O)C(=O)N1C[C@H]2CCc2ccccc21 (single isomer, unassigned) 10.5

Would you mind doing `C[C@H]1C(F)=CC[C@H]2CN1C(=O)c1c(O)c(=O)c(C(=O)NCc3c(F)cc(F)cc3F)cn12` as well? 25.7

How about O=C(NCc1ccc(F)cc1F)c1cn2c(c(O)c1=O)C(=O)N1CC2CCc2cc(F)ccc21 (single isomer, unassigned) ? 13

Would you mind doing `O=C(NCc1c(F)cc(F)cc1F)c1cn2c(c(O)c1=O)C(=O)N1CCCC[C@H]2C1` as well? 14.4

Same thing, different molecule: C[C@]12CC(F)CCN(C1)C(=O)c1c(O)c(=O)c(C(=O)NCc3c(F)cc(F)cc3F)cn12 (single isomer, unassigned) 8.03

Try this molecule next: `O=C(NCc1c(F)cc(F)cc1F)c1cn2c(c(O)c1=O)C(=O)N1CCCC[C@@]2(CF)C1` 20.2

Try this molecule next: O=C(NCc1c(F)cc(F)cc1F)c1cn2c(c(O)c1=O)C(=O)N1CCc3cc(F)c(F)cc3[C@@H]2C1 (single isomer, unassigned) 6.33

Next: `C[C@H]1C[C@H]2CN(C(=O)c3c(O)c(=O)c(C(=O)NCc4c(F)cc(F)cc4F)cn32)[C@@H](C)C1` 13.6

Now consider `O=C(NCc1c(F)cc(F)cc1F)c1cn2c(c(O)c1=O)C(=O)N1CCC[C@H]3C[C@@]32C1` . 10.4

Do the same for O=C(NCc1ccc(F)cc1F)c1cn2c(c(O)c1=O)C(=O)N1C[C@@H](F)CC[C@H]2C1 (single isomer, unassigned) please 28.4

Similarly, C[C@@]12Cc3cc(F)c(F)cc3CN(C1)C(=O)c1c(O)c(=O)c(C(=O)NCc3c(F)cc(F)cc3F)cn12 (single isomer, unassigned) ? 11.6

Queued: `C[C@H]1CC(F)(F)C[C@H]2CN1C(=O)c1c(O)c(=O)c(C(=O)NCc3c(F)cc(F)cc3F)cn12` 16.9

Likewise for `C[C@@H]1CC[C@H](C)N2C[C@H]1n1cc(C(=O)NCc3c(F)cc(F)cc3F)c(=O)c(O)c1C2=O` ? 11.4
